Measured on: T1, human OT7T175 (metastin receptor) (human, UniProt Q969F8 1-398)
T1 construct: expressed on CHO cells; also called hOT7T175; hOT7T175-expressed CHO cells
Assay remarks: competition with Cy-5 metastin (40-54) on hOT7T175-CHO cells, FMAT
Non-standard residues stand in square brackets, D forms with d. No end group written: not given here. Phe(4-Cl) = N[C@@H](Cc1ccc(Cl)cc1)C(=O)O; Phe(4-F) = N[C@@H](Cc1ccc(F)cc1)C(=O)O; Arg(Me) = CNC(=N)NCCC[C@H](N)C(=O)O; 4Pal = N[C@@H](Cc1ccncc1)C(=O)O; d3Pal = N[C@H](Cc1cccnc1)C(=O)O; d4Pal = N[C@H](Cc1ccncc1)C(=O)O; Cha = N[C@@H](CC1CCCCC1)C(=O)O; azaGly = NNC(=O)O
IC50 strictly under 20 nM means class 1; at 20 nM or over means class 0.

Query: In the record for YDWNSFGLRF-NH2 (also called Compound No. 57) [[Asp2]MS10] , is IC50 less than 20 nM?
Result: class 0

Query: Consider next the binder YNWNSFGLR[Phe(4-F)]-NH2 (also called Compound No. 61) [[Phe(4F)10]MS10] in the same way.
Result: class 1

Query: Consider next the binder [dY]NINSF[azaGly]L[Arg(Me)]F-NH2 (N-terminus assumed; SMILES CC[C@H](C)[C@H](NC(=O)[C@H](CC(N)=O)NC(=O)[C@H](N)Cc1ccc(O)cc1)C(=O)N[C@@H](CC(N)=O)C(=O)N[C@@H](CO)C(=O)N[C@@H](Cc1ccccc1)C(=O)NNC(=O)N[C@@H](CC(C)C)C(=O)N[C@@H](CCCNC(=N)NC)C(=O)N[C@@H](Cc1ccccc1)C(N)=O, also called Compound No. 233) [[D-Tyr1,Ile3,AzaGly7,Arg(Me)9]MS10] in the same way.
Result: class 0

Query: Consider next the binder [dY]TWNSFGL[Arg(Me)]F-NH2 (N-terminus assumed; SMILES CNC(=N)NCCC[C@H](NC(=O)[C@H](CC(C)C)NC(=O)CNC(=O)[C@H](Cc1ccccc1)NC(=O)[C@H](CO)NC(=O)[C@H](CC(N)=O)NC(=O)[C@H](Cc1c[nH]c2ccccc12)NC(=O)[C@@H](NC(=O)[C@H](N)Cc1ccc(O)cc1)[C@@H](C)O)C(=O)N[C@@H](Cc1ccccc1)C(N)=O, also called Compound No. 215) [[D-Tyr1,Thr2,Arg(Me)9]MS10] in the same way.
Result: class 0

Query: Consider next the binder YNWNSFGLR[Phe(4-Cl)]-NH2 (also called Compound No. 130) [[Phe(4Cl)10]MS10] in the same way.
Result: class 0

Query: Consider next the binder [d4Pal][dN][Cha]NSF[azaGly]L[Arg(Me)]F-NH2 (N-terminus assumed; SMILES CNC(=N)NCCC[C@H](NC(=O)[C@H](CC(C)C)NC(=O)NNC(=O)[C@H](Cc1ccccc1)NC(=O)[C@H](CO)NC(=O)[C@H](CC(N)=O)NC(=O)[C@H](CC1CCCCC1)NC(=O)[C@@H](CC(N)=O)NC(=O)[C@H](N)Cc1ccncc1)C(=O)N[C@@H](Cc1ccccc1)C(N)=O, also called Compound No. 306) [[D-Pya(4)1,D-Asn2,Cha3,AzaGly7,Arg(Me)9]MS10] in the same way.
Result: class 1

Query: Consider next the binder [d3Pal]WNSF[azaGly]L[Arg(Me)]F-NH2 (also called Compound No. 289; [D-Pya(3)2,AzaGly7,Arg(Me)9]MS10-(2-10)) [des(1)-[D-Pya(3)2,AzaGly7,Arg(Me)9]MS10] in the same way.
Result: class 1

Query: Consider next the binder [dY]N[4Pal]NSF[azaGly]L[Arg(Me)]F-NH2 (also called Compound No. 286) [[D-Tyr1,Pya(4)3,AzaGly7,Arg(Me)9]MS10] in the same way.
Result: class 1

Query: Consider next the binder [dY][dN]WNSF[azaGly]L[Arg(Me)]F-NH2 (also called Compound No. 237) [[D-Tyr1,D-Asn2,AzaGly7,Arg(Me)9]MS10] in the same way.
Result: class 0
